Data origin: paper doi:10.1101/2024.09.22.614354

Assay System: T1, wild type Rb pocket domain (Rb^P) (human, UniProt P06400 380-788)
T1 sequence: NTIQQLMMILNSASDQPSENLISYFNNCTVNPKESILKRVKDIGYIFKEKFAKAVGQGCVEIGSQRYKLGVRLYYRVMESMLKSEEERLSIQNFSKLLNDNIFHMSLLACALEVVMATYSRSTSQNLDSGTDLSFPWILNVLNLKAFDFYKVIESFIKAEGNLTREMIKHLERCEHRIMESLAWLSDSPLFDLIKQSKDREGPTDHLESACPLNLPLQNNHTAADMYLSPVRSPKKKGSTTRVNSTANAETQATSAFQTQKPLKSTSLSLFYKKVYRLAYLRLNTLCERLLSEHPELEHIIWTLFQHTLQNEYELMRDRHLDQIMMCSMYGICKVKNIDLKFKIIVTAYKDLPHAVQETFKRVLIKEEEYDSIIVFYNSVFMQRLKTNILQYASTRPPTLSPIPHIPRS
Protocol Description: fluorescence polarisation
Attribute Measured: pKd
The value called pKd is obtained by taking minus log10 of the concentration in mol/L.

Which pKd is reported for this binder? DLYCYEQLN (not fully specified; TMR fluorescent label (TMR-E7^LxCxE)) [TMR-E7^LxCxE (LxCxE peptide of the E7 oncoprotein from HPV, TMR-labeled)] 8.30
